# TARGET_ENTITY: T1, 4H344-bA
# T1 chain: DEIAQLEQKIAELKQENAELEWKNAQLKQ
# MEASUREMENT_PROTOCOL: two-hybrid library CCNG1;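 note: natural log of median RNA to DNA barcode read ratio; higher means stronger binding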
PROPERTY_LABEL: interaction score

DKIAQLKQEIAELEQEIAELEWKNAQLKQ [4H2568-bA]
0.491
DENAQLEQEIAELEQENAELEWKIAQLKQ [4H1046-bA]
-0.743
DEIAQLEQKIAELKQENAELEWKNAQLKQ [4H344-bA]
-0.268
DENAQLEQEIAELEQKIAELKWKNAQLKQ [4H1072-bA]
-0.759
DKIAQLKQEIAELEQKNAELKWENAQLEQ [4H2619-bA]
2.12
DKIAQLKQENAELEQKNAELKWEIAQLEQ [4H2745-bA]
0.257
